All values here come from patent US20220177594A1.

Quick reference for ELISA ratio among some binders
biological target: Feline_OSMR_hlgG1_Fc (feline); assay: indirect ELISA, fOSMR coated; OD ratio to antibody expression control
Sequence (chain, as listed by the source limits assumed, form in doubt): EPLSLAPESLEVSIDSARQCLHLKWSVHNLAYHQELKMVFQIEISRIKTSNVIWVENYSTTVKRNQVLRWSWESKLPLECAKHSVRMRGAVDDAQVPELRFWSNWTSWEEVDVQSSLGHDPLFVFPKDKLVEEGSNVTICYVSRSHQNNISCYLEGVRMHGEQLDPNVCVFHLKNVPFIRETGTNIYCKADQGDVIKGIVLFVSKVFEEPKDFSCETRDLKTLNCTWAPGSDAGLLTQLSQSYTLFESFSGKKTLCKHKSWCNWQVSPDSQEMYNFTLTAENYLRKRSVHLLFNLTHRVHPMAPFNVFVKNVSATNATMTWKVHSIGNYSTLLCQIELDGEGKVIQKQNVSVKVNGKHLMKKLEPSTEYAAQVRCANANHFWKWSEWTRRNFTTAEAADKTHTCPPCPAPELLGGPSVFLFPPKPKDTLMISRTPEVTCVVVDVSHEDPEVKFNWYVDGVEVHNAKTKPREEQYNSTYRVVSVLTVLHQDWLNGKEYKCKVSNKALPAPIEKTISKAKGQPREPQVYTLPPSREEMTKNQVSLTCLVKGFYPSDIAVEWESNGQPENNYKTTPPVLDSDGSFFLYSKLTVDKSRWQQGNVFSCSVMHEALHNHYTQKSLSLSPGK
Give the value, in units of OD ratio, as a plain number.

Mu_02D09_VH (SEQ ID NO: 31)_Y50A (antibody, V domains shown) VH: EVQLVESGGGLVKPGGSLTLSCAASGFTFSDYGMHWLRQAPEKGLEWVAAISSGSRAVFFADTVKGRFTISRDNAKNTLFLQMTSLRSDDTAMYYCARDRYDGRGFAYWGQGTLVTVSA VL: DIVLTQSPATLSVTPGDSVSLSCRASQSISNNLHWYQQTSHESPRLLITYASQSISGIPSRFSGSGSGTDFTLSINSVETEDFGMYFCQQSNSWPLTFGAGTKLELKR : 0.009

Lookup: ELISA ratio lookup needed for Mu_02D09_VH (SEQ ID NO: 31)_Y32A (antibody, V domains shown) VH: EVQLVESGGGLVKPGGSLTLSCAASGFTFSDAGMHWLRQAPEKGLEWVAYISSGSRAVFFADTVKGRFTISRDNAKNTLFLQMTSLRSDDTAMYYCARDRYDGRGFAYWGQGTLVTVSA VL: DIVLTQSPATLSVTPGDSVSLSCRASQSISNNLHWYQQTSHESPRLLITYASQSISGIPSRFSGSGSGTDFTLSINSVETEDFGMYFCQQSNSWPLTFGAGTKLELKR , thanks.
Found: 0.991

Lookup: // same read-out, input: Mu_10F07_VL (SEQ ID NO: 41)_T97A (antibody, V domains shown) VH: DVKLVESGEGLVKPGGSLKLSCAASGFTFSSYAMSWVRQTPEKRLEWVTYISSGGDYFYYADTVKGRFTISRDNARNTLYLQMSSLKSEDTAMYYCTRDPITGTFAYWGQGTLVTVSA VL: DIQMTQTTSSLSASLGDRVTISCRASQDITNYLNWYQQKPDGTVKLLIYYTSTLHSGVPSRFSGSGSGTDFSLTISNLEQEDIATYFCQQGHMLPWAFGGGTKLEIKR
Found: 0.298
